Test system: HS 578T breast
Test: NCI tumour cell line growth inhibition, 48 h
readout.type: TGI

- smiles.code: "Cc1cc2cc3cc(C)c(N(C)C)cc3[n+](C)c2cc1N(C)C"
  assay.target: "HS 578T breast"
  TGI: "14.9 µM"

# get_value(readout='TGI', item= O=c1cc(-c2ccc(O)cc2)n(C2CC2)c2ccccc12 )
24.8 µM

Name the reported TGI value associated with the compound Cc1ccc2c(c1)c1nc3cc(C)c(C)cc3nc1n2CCN(C)C
8.04 µM

###

Test system: RXF 393 renal
Assay: NCI tumour cell line growth inhibition, 48 h; in the data active = GI50 below about 0.43 µM; inactive = the rest
The categories you may choose from are T for active, F for inactive

Use these answered entries as a reference point.
- molecule: "CC(C)[C@H]1CC[C@H]2[C@@H](CC[C@H]3[C@](C)(CN)CCC[C@]23C)C1"
  assay.target: "RXF 393 renal"
  category.label: "F"
- molecule: "Fc1ccc(-c2nn3c(-c4ccc(F)c(Cl)c4)nnc3s2)cc1"
  assay.target: "RXF 393 renal"
  category.label: "F"
- molecule: "S=C(N/N=C(/c1ccccc1)c1ccccn1)N1CCCCC1"
  assay.target: "RXF 393 renal"
  category.label: "T"
- molecule: "C#CCN(Cc1nc2cc(C(F)(F)F)ccc2nc1-c1ccccc1)c1ccc(OC(F)(F)F)cc1"
  assay.target: "RXF 393 renal"
  category.label: "F"
- molecule: "CCC[CH2][Sn]([CH2]CCC)([O]C(=O)c1cc(F)ccc1F)[O][Sn]([CH2]CCC)([CH2]CCC)[O]C(=O)c1cc(F)ccc1F"
  assay.target: "RXF 393 renal"
  category.label: "T"
- molecule: "Cc1ccc(NC(=O)Cc2ccc(/C=C/C(=O)c3ncc[nH]3)cc2)cc1"
  assay.target: "RXF 393 renal"
  category.label: "F"

What classification did N#Cc1cccc(OCc2nc(N)nc(N)c2-c2ccc(Cl)c(Cl)c2)c1 end up with in this test?
F

Can you look up the reported call for Nc1ncnc2c1ncn2Cc1ccc(C23CC4CC(CC(C4)C2)C3)c(OCc2cc(F)c(F)cc2F)c1 for me?
F
